Assay: CREB reporter modulators under forskolin, primary screen, cell-based, PC12, CRE-LacZ reporter, forskolin-stimulated (AID 1146);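 also: PC12 cells with 6xCRE LacZ reporter stimulated by forskolin 10 µM; beta-galactosidase reporter signal reflecting CREB driven transcription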
Conditions: luminescence, 4.5 h, higher = more signal, called active from +8 up or from −8 down
assay.metric: z-score
Answers are plain numbers.

Study these solved cases before continuing.
>  <compound>
CCCNC(=O)OC[C@H]1O[C@H](CCON=Cc2ccc(C(=O)N3[C@H](c4ccc(C)cc4)[C@@H](C)CC[C@H]3C(=O)OC)cc2)C=C[C@@H]1Oc1ccc(OC)cc1

>  <assay.value>
1.16

$$$$
>  <compound>
CC=CC1=C(CO)C(=O)[C@@H]2O[C@@H]2C1=O

>  <assay.value>
3.64

$$$$
>  <compound>
CCO[C@H](c1cc(OC)cc([N+](=O)[O-])c1OC)[C@H](C)C=CCC(=O)OC

>  <assay.value>
-0.893

$$$$
>  <compound>
COC(=O)[C@H](C)NC(=O)CCC1CC(OC(=O)NCCc2ccc(F)cc2)CC2(CCCC(COC(=O)NCCC(C)C)O2)O1 (stereo partly specified)

>  <assay.value>
0.283

$$$$
>  <compound>
CCOC(=O)[C@H](CC(C)C)NC(=O)CCC1CC(OC(=O)NCCc2ccc(F)cc2)CC2(CCCC(COC(=O)NCC(c3ccccc3)c3ccccc3)O2)O1 (stereo partly specified)

>  <assay.value>
-0.292

$$$$

For every listed record, write down its z-score.
1. C#CCCCON=C1C[C@@H](O)[C@@H](O)[C@@H]2[C@@H]3C(=O)N(Cc4ccccc4)C(=O)[C@@H]3CC[C@@H]12
2. C[C@@H](c1ccccc1)N1C(=O)[C@H]2[C@H]3[C@H](O)[C@H](O)CC(=NOCc4ccccc4)[C@H]3CC[C@H]2C1=O
3. COc1cccc([C@H]2Oc3ccc(OC)cc3C(=NOC[C@@H](O)COCc3ccco3)[C@@H]2O)c1
4. CO[C@@H]1COC(=O)[C@@H]2CCCN2C(=O)[C@@H](C)COC(=O)CC=C[C@H]1C
5. CC(C)(C)N1C(=O)[C@H]2[C@H]3[C@H](O)[C@H](O)CC(=NOCc4ccccc4)[C@H]3CC[C@H]2C1=O

## Result
1. 0.174
2. 0.0517
3. 0.493
4. 0.828
5. 0.183

----------
Test: MM1S cell viability effects, profiling panel, calcein-AM fluorescence, 48 h, basal (AID 1165);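 also: viability of MM1S multiple myeloma cells under basal unstimulated conditions; test concentration not given here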
Conditions: higher = more signal
assay.metric: z-score
Give bare numbers.

>  <molecule>
C=CC[C@@H]1C=C[C@H](ON=C[C@@H](C)[C@H](OCc2ccccc2)C(C)C)[C@@H](CO)O1

>  <z-score>
-1.55

$$$$
>  <molecule>
COC(=O)CC=C[C@@H](C)[C@@H](C=NO[C@@H](C)c1cn([C@H](CO)Cc2ccccc2)nn1)OC

>  <z-score>
0.354

$$$$
>  <molecule>
CC(C)C[C@H](NC(=O)CCC1CC(OC(=O)NCc2cccc3ccccc23)CC2(CCCC(COC(=O)NCc3ccccc3)O2)O1)C(=O)NCC(c1ccccc1)c1ccccc1 (stereo partly specified)

>  <z-score>
-3.53

$$$$
>  <molecule>
CC(CCN1CCCCc2nc(C)c(C)cc21)=NO[C@@H](C)c1cn([C@H](CO)Cc2ccccc2)nn1

>  <z-score>
0.313

$$$$
>  <molecule>
COc1ccc(O[C@@H]2[C@H](O)CO[C@@H]2C=Cc2ccccc2)cc1

>  <z-score>
-2.82

$$$$

For every listed record, write down its z-score.
1. CO[C@@H]1C=CCC(=O)N[C@@H](C)C(=O)OC[C@@H](OC)[C@H](C)CCCC(=O)OC[C@H]1C
2. O=C1C[C@@H](O)[C@@H](O)[C@@H]2[C@@H]3C(=O)N(Cc4ccc5c(c4)OCO5)C(=O)[C@@H]3CC[C@H]12
3. CCOC(=O)[C@H](CC(C)C)NC(=O)CCC1CC(OC(=O)NCc2cccc3ccccc23)CC2(CCCC(COC(=O)NCCOc3ccccc3)O2)O1 (stereo partly specified)
4. COC(=O)CC=C[C@@H](C)[C@@H]1C=C[C@H](O)[C@@H](CO)O1
5. COC(=O)CC=C[C@@H](C)[C@@H](C=NOCC[C@@H]1C=C[C@H](OC(C)=O)[C@@H](COC(C)=O)O1)OC

## Result
[0.188, 0.0737, -1.32, 0.667, -0.616]

For every listed record, write down its z-score.
1. CCOC(=O)[C@H](Cc1ccccc1)NC(=O)OC1CC(CCC2CC(CC)=NO2)OC2(CCCC(COC(=O)NCCC(C)C)O2)C1 (stereo partly specified)
2. COC(=O)CC=C[C@@H](C)[C@@H](C=NO[C@H](C)c1cn([C@@H]2COC[C@H]2O)nn1)NS(=O)(=O)c1ccc(C)cc1
3. CCN1C(=O)[C@H]2[C@H]3[C@H](O)[C@H](O)CC(=O)[C@H]3CC[C@H]2C1=O
4. COC(=O)CC=C[C@H](C)[C@@H](OCc1cccc(Br)c1)[C@@H](C)[C@H](OC)C1CCCCC1

## Result
1. -3.44
2. 0.111
3. 0.14
4. -2.16

For every listed record, write down its z-score.
1. CCOC(=O)[C@H](Cc1ccccc1)NC(=O)CCC1CC(OC(=O)NCCc2ccc(F)cc2)CC2(CCCC(COC(=O)NCCc3ccc(Cl)cc3)O2)O1 (stereo partly specified)
2. C#CCCCON=C1[C@H]2CCn3c(=O)n(C)c(=O)n3[C@H]2[C@H](O)[C@@H]2O[C@H]12

## Result
[-1.91, -0.85]

----------
Biological target: Torsin-1A-interacting protein 1 (Homo sapiens)
Assay: LAP1 binders from COS7 cell lysate, primary screen, small-molecule microarray, 635/667 nm fluorescence (AID 1116)
Conditions: COS7-hLAP1 lysate binding, 635 nm fluorescence, higher = more signal
assay.metric: composite z-score
Give bare numbers.

>  <compound>
COC(=O)[C@H](C)NC(=O)CCC1CC(OC(=O)NCCc2ccc(F)cc2)CC2(CCCC(COC(=O)NCc3cccc(C(F)(F)F)c3)O2)O1 (stereo not given in full)

>  <composite z-score>
0.322

$$$$
>  <compound>
C[C@@H]1CC[C@H]2C(=O)O[C@@H](COc3ccc(C(C)(C)C)cc3)CN2[C@@H]1c1ccc(Br)cc1

>  <composite z-score>
-0.319

$$$$
>  <compound>
CO[C@H]1COC(=O)CC=C[C@@H](C)[C@H](OC)COC(=O)CCC[C@@H]1C

>  <composite z-score>
0.389

$$$$
>  <compound>
COC(=O)CC=C[C@@H](C)[C@@H](C=NO[C@@H](C)c1cn([C@H](CO)Cc2ccccc2)nn1)NS(=O)(=O)c1ccc(C)cc1

>  <composite z-score>
0.258

$$$$

For every listed record, write down its composite z-score.
1. C#CCCCON=C1C[C@@H](O)[C@@H](O)[C@@H]2[C@@H]3C(=O)N(c4cccc(Oc5ccccc5)c4)C(=O)[C@@H]3CC[C@H]12
2. COc1ccc(O[C@H]2C=C[C@@H](c3ccccc3)O[C@@H]2COC(=O)CCC(C)=NOC(C)CN2CCCc3nc(C)c(C)cc32)cc1 (stereo not given in full)
3. CCOC(=O)[C@H](Cc1ccccc1)NC(=O)OC1CC(CCC2CC(CC)=NO2)OC2(CCCC(COC(=O)NCCC(C)C)O2)C1 (stereo not given in full)
4. CC[C@@H](c1ccccc1)n1c(=O)n2n(c1=O)[C@H]1[C@H](O)[C@@H]3O[C@@H]3C(=O)[C@H]1CC2
5. O=c1n(Cc2cc3c(cc2Cl)OCO3)c(=O)n2n1CC[C@@H]1C(=NOC[C@@H](O)COCc3ccco3)[C@H]3O[C@H]3[C@@H](O)[C@@H]12
6. COc1cccc([C@H]2Oc3ccc(OC)cc3C(=NO[C@@H](C)c3cn([C@H](CO)Cc4ccccc4)nn3)[C@@H]2O)c1

## Result
[0.441, 0.4, 0.309, -0.113, 0.469, -0.0881]

----------
System: wheat germ agglutinin (Triticum aestivum), Alexa647-labelled
Test: wheat germ agglutinin binders on compound microarrays, profiling panel, artefact control for SMM control-protein annotation, biochemical, small-molecule microarray, 635/667 nm fluorescence (AID 1140);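 also: score merges 667 nm feature emission with signal to noise over triplicate slides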
Settings: WGA-A647 binding, 635 nm fluorescence, higher = more signal
Label rule met for high-side composite z-score (at or above 0.2) and rule not met for low-side composite z-score (below it).

A selection of reference data follows.
>  <compound>
O=C1CCCC=C1C(O)CCCCBr (stereo not drawn)

>  <class.name>
rule met

$$$$
>  <compound>
COC(=O)C1=C(C)N(Cc2ccccc2)[C@]23O[C@](C(=O)OC)(C(=O)N2[C@@H]1c1ccccc1)C(C(=O)OC)=C3C(=O)OC

>  <class.name>
rule not met

$$$$
>  <compound>
COc1ccc(O[C@H]2C=C[C@@H](c3ccccc3)O[C@@H]2CON=CC[C@@H]2C=C[C@H](OC(C)=O)[C@@H](COC(C)=O)O2)cc1

>  <class.name>
rule met

$$$$
>  <compound>
C=COC[C@@H]1CN2[C@@H](CC[C@@H](C)[C@@H]2c2ccc(Br)cc2)C(=O)O1

>  <class.name>
rule not met

$$$$
>  <compound>
CO[C@H]1COC(=O)[C@@H](C)COC(=O)[C@H](COCc2ccccc2)NC(=O)CC=C[C@H]1C

>  <class.name>
rule not met

$$$$

## Task Is the recorded value of composite z-score equal to or greater than 0.2 for this compound? COc1ccc(C#C[C@@H]2C=C[C@H](OC(C)=O)[C@@H](COC(C)=O)O2)cc1
## Result rule met

## Task What do we get for C[C@H](ON=C1[C@H]2CCn3c(=O)n(-c4ccccc4)c(=O)n3[C@H]2[C@H](O)[C@@H]2O[C@H]12)c1cn([C@H](CO)Cc2ccccc2)nn1 ?
## Result rule met

## Task What do we get for CC=CC1=C(CO)C(=O)[C@@H]2O[C@@H]2C1=O ?
## Result rule not met
